TARGET_OF_ASSAY: panel of 255 wild-type kinases (Homo sapiens, UniProt Q14289)
Sequence (Q14289 whole entry): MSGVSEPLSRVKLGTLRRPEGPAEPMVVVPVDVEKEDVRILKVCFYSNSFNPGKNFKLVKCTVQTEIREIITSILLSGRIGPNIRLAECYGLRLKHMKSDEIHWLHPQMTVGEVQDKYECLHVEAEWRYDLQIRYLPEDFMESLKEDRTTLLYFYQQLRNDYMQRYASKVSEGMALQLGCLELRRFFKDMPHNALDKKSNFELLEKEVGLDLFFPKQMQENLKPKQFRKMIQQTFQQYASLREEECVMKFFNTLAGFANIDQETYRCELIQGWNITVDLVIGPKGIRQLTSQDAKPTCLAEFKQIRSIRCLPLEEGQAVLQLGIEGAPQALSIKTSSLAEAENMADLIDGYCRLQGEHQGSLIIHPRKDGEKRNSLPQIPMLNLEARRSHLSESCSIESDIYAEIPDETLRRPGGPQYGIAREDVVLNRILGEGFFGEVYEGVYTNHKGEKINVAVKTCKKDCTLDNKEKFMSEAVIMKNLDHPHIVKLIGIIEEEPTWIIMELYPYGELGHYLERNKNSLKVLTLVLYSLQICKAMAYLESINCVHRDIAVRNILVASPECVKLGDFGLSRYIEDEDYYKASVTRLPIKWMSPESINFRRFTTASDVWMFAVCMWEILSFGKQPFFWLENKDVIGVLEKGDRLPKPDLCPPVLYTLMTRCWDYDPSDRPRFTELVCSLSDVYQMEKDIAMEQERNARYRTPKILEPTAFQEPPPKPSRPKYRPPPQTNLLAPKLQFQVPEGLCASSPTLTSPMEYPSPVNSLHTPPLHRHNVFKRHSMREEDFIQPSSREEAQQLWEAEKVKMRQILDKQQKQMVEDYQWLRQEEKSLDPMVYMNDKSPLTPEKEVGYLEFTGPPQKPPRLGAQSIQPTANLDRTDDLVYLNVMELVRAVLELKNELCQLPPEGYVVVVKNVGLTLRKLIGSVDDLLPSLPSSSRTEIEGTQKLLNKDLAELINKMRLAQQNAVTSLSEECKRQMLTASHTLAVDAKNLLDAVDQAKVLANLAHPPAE
MEASUREMENT_DESCRIPTION: Kinase panel profiling at 1 µmol/L (MSA or IMAP), percentage inhibition
Format: biochemical
CONDITION_CONTEXT: kinase PYK2; 1 µmol/L single concentration; read-out: %-inhibition at 1 µmol/L, PYK2
inhibition at 1 µM of 10% or higher: fulfilled. Under 10%: not fulfilled.

Before answering, review these 5 worked examples.
>>> label("CCN1CCN(c2ccc(Nc3cc(N(C)C(=O)Nc4c(Cl)c(OC)cc(OC)c4Cl)ncn3)cc2)CC1")
"fulfilled"
>>> label("COC(=O)N[C@@H](C)CNc1nccc(-c2cn(C(C)C)nc2-c2cc(Cl)cc(NS(C)(=O)=O)c2F)n1")
"not fulfilled"
>>> label("CCc1nc(C(N)=O)c(Nc2ccc(N3CCC(N4CCN(C)CC4)CC3)c(OC)c2)nc1NC1CCOCC1")
"fulfilled"
>>> label("COc1cc2ncnc(Nc3ccc(F)c(Cl)c3)c2cc1NC(=O)/C=C/CN1CCCCC1")
"not fulfilled"
>>> label("Cn1cc(-c2cc3c(N4CCN(c5ncc([C@@](C)(N)c6ccc(F)cc6)cn5)CC4)ncnn3c2)cn1")
"not fulfilled"

Could you now look at the following compound, please?
Hi team, for FC(F)(F)c1ccc(CNc2ccc(Cc3c[nH]c4ncc(Cl)cc34)cn2)cn1 , is the recorded inhibition at 1 µM at or above 10%? not fulfilled

====

TARGET_OF_ASSAY: UniProtKB Q9Y6E0
Sequence (Q9Y6E0 whole entry): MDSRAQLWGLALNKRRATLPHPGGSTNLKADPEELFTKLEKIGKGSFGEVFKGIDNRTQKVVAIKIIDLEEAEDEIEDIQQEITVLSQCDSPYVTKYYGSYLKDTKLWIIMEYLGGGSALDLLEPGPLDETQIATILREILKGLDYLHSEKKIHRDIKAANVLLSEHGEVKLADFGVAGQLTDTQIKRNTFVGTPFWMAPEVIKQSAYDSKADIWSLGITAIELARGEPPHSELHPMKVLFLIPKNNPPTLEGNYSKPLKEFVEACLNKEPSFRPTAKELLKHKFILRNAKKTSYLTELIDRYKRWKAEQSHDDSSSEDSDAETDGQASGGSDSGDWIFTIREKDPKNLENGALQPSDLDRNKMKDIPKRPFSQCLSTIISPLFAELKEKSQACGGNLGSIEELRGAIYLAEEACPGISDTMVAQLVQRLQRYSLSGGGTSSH
MEASUREMENT_DESCRIPTION: Kinase panel profiling at 1 µmol/L (MSA or IMAP), percentage inhibition
Type: biochemical
CONDITION_CONTEXT: MST3; 1 µmol/L single concentration; read-out: %-inhibition, MST3
READOUT_TYPE: inhibition at 1 µM (%)
Answer format: numeric, % implied, no suffix.

Give UniProtKB Q9Y6E0 inhibition at 1 µM for the following compound: CO[C@]1(C(=O)N[C@@H](C)c2ccc(-n3cc(F)cn3)nc2)CC[C@H](c2nc(C)cc(Nc3cc(C)[nH]n3)n2)CC1 [pralsetinib] 8

Give UniProtKB Q9Y6E0 inhibition at 1 µM for the following compound: CCN1C(=O)N(c2c(F)c(OC)cc(OC)c2F)Cc2cnc3[nH]c(CN4CCOCC4)cc3c21 [pemigatinib] 80

Give UniProtKB Q9Y6E0 inhibition at 1 µM for the following compound: COc1cc2ncnc(Nc3ccc(F)c(Cl)c3)c2cc1NC(=O)/C=C/CN1CCCCC1 [dacomitinib] 27

Give UniProtKB Q9Y6E0 inhibition at 1 µM for the following compound: Cc1cc(Nc2ncnc3ccc(NC4=NC(C)(C)CO4)cc23)ccc1Oc1ccn2ncnc2c1 [tucatinib] 10

Give UniProtKB Q9Y6E0 inhibition at 1 µM for the following compound: CCN1CCN(c2ccc(Nc3cc(N(C)C(=O)Nc4c(Cl)c(OC)cc(OC)c4Cl)ncn3)cc2)CC1 [infigratinib] 7

Give UniProtKB Q9Y6E0 inhibition at 1 µM for the following compound: Cc1nc(NC(=O)N2CCC[C@H]2C(N)=O)sc1-c1ccnc(C(C)(C)C(F)(F)F)c1 [alpelisib] -4.63

Give UniProtKB Q9Y6E0 inhibition at 1 µM for the following compound: COc1ccc(CN2C3CC2CN(c2ccc(-c4cc(OCC(C)(C)O)cn5ncc(C#N)c45)cn2)C3)cn1 [selpercatinib] 6

Give UniProtKB Q9Y6E0 inhibition at 1 µM for the following compound: C[C@H](Nc1ncnc2nc[nH]c12)c1cc2cccc(Cl)c2c(=O)n1-c1ccccc1 [duvelisib] 0.418

====

inhibition at 1 µM overview
TARGET_OF_ASSAY: panel of 255 wild-type kinases (Homo sapiens, UniProt P54762)
Sequence (P54762 18-984): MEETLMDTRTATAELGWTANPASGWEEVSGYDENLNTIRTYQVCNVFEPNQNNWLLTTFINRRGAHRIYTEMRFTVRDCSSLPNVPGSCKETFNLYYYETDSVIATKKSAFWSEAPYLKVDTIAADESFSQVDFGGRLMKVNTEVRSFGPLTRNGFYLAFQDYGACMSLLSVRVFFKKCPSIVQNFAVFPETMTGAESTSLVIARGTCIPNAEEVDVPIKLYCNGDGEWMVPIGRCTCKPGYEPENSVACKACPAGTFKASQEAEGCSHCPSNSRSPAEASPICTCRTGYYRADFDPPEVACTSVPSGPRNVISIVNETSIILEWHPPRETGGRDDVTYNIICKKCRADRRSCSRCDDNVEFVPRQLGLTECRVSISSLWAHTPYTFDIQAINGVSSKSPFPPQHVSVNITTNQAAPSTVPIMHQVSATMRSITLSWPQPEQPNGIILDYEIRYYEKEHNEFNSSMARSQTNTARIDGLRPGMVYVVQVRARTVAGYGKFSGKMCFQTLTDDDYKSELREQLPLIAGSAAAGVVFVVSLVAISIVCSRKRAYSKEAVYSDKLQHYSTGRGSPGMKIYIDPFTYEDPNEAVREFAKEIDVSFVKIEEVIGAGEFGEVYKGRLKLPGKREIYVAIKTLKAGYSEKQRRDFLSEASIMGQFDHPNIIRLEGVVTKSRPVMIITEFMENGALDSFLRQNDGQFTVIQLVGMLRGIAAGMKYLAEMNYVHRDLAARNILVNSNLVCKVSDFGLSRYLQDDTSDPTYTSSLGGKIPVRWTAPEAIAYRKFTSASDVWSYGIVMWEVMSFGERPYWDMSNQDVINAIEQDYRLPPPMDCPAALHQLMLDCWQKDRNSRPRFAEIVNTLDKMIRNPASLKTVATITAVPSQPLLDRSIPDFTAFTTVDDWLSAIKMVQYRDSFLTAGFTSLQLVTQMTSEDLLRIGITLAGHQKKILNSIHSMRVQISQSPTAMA
MEASUREMENT_DESCRIPTION: Kinase panel profiling at 1 µmol/L (MSA or IMAP), percentage inhibition
Type: biochemical
CONDITION_CONTEXT: kinase EPHB1; 1 µmol/L single concentration; read-out: %-inhibition at 1 µmol/L, EPHB1
Answer format: numeric, % implied, no suffix.

Observe how each entry below is paired with its result.
>>> value("CO[C@]1(C(=O)N[C@@H](C)c2ccc(-n3cc(F)cn3)nc2)CC[C@H](c2nc(C)cc(Nc3cc(C)[nH]n3)n2)CC1")
58
>>> value("Cc1nc(NC(=O)N2CCC[C@H]2C(N)=O)sc1-c1ccnc(C(C)(C)C(F)(F)F)c1")
8
>>> value("CCN1C(=O)N(c2c(F)c(OC)cc(OC)c2F)Cc2cnc3[nH]c(CN4CCOCC4)cc3c21")
-3
>>> value("CCn1c(=O)c(-c2cc(NC(=O)Nc3ccccc3)c(F)cc2Br)cc2cnc(NC)cc21")
92
>>> value("COc1cc2ncnc(Nc3ccc(F)c(Cl)c3)c2cc1NC(=O)/C=C/CN1CCCCC1")
45

Look up and state reported inhibition at 1 µM for Cn1cnc2c(F)c(Nc3ccc(Br)cc3Cl)c(C(=O)NOCCO)cc21 -0.927

Look up and state reported inhibition at 1 µM for CCN1CCN(c2ccc(Nc3cc(N(C)C(=O)Nc4c(Cl)c(OC)cc(OC)c4Cl)ncn3)cc2)CC1 2.8

Look up and state reported inhibition at 1 µM for FC(F)(F)c1ccc(CNc2ccc(Cc3c[nH]c4ncc(Cl)cc34)cn2)cn1 11

Look up and state reported inhibition at 1 µM for COC(=O)N[C@@H](C)CNc1nccc(-c2cn(C(C)C)nc2-c2cc(Cl)cc(NS(C)(=O)=O)c2F)n1 3

Look up and state reported inhibition at 1 µM for O=C(Nc1cnn2ccc(N3CCC[C@@H]3c3cc(F)ccc3F)nc12)N1CC[C@H](O)C1 -0.531

Look up and state reported inhibition at 1 µM for Cn1cnc2c(F)c(Nc3ccc(Br)cc3F)c(C(=O)NOCCO)cc21 2

Look up and state reported inhibition at 1 µM for Cn1cc(-c2cc3c(N4CCN(c5ncc([C@@](C)(N)c6ccc(F)cc6)cn5)CC4)ncnn3c2)cn1 65

Look up and state reported inhibition at 1 µM for Cc1cc(Nc2ncnc3ccc(NC4=NC(C)(C)CO4)cc23)ccc1Oc1ccn2ncnc2c1 0.25

Look up and state reported inhibition at 1 µM for CN1CCN(c2ccc(C(=O)Nc3n[nH]c4ccc(Cc5cc(F)cc(F)c5)cc34)c(NC3CCOCC3)c2)CC1 62

Look up and state reported inhibition at 1 µM for CCc1nc(C(N)=O)c(Nc2ccc(N3CCC(N4CCN(C)CC4)CC3)c(OC)c2)nc1NC1CCOCC1 87

Look up and state reported inhibition at 1 µM for C[C@H]1Oc2cc(cnc2N)-c2c(nn(C)c2C#N)CN(C)C(=O)c2ccc(F)cc21 68

====

TARGET_OF_ASSAY: panel of 255 wild-type kinases (Homo sapiens, UniProt P22607)
Sequence (P22607 23-806): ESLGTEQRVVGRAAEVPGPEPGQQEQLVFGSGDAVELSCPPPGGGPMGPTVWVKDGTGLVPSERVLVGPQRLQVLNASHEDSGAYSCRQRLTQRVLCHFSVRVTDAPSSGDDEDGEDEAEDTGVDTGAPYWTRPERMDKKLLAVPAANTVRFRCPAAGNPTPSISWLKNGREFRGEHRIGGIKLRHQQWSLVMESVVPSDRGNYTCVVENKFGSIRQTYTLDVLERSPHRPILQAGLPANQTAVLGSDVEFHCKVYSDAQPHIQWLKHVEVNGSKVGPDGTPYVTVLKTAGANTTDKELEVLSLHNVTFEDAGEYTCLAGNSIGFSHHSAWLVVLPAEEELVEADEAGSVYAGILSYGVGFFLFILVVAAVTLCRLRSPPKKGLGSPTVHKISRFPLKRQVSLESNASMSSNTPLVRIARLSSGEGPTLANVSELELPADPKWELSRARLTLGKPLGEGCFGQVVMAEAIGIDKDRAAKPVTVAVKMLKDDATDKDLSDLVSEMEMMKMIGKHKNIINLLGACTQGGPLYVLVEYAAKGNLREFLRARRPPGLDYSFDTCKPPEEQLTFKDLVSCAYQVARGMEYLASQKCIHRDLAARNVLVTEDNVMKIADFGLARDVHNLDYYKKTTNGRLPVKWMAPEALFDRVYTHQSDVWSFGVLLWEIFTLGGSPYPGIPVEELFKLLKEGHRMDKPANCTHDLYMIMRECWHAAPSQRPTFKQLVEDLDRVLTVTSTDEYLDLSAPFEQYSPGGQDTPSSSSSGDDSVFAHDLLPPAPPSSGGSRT
MEASUREMENT_DESCRIPTION: Kinase panel profiling at 1 µmol/L (MSA or IMAP), percentage inhibition
Type: biochemical
CONDITION_CONTEXT: kinase FGFR3; 1 µmol/L single concentration; read-out: %-inhibition at 1 µmol/L, FGFR3
READOUT_TYPE: inhibition at 1 µM (%)
Answer format: numeric, % implied, no suffix.

Observe how each entry below is paired with its result.
>>> value("Cn1cnc2c(F)c(Nc3ccc(Br)cc3Cl)c(C(=O)NOCCO)cc21")
2.76
>>> value("COc1ccc(CN2C3CC2CN(c2ccc(-c4cc(OCC(C)(C)O)cn5ncc(C#N)c45)cn2)C3)cn1")
95

Give panel of 255 wild-type kinases (Homo sapiens, UniProt P22607) inhibition at 1 µM for the following compound: COC(=O)N[C@@H](C)CNc1nccc(-c2cn(C(C)C)nc2-c2cc(Cl)cc(NS(C)(=O)=O)c2F)n1 1

Give panel of 255 wild-type kinases (Homo sapiens, UniProt P22607) inhibition at 1 µM for the following compound: CCc1nc(C(N)=O)c(Nc2ccc(N3CCC(N4CCN(C)CC4)CC3)c(OC)c2)nc1NC1CCOCC1 76
